System: IL-1β production by mouse peritoneal macrophages
Assay: IL-1β production by mouse peritoneal macrophages (ELISA)
Assay type: cell-based
Settings: dose 0.2 μM; mouse peritoneal macrophages, 48 h, ELISA
Peptide text beside a SMILES is read from it. * marks the point of attachment. X58 = O=C1C=CC(=O)N1c1cccc(CCCCCCCCCCCC(=O)*)c1; X74 = O=C1C=CC(=O)N1c1cccc(CCCCCCCCCCC(=O)*)c1; X84 = O=C1C=CC(=O)N1c1ccccc1CCCCCCCCCCCCC(=O)*; X64 = O=C1C=CC(=O)N1c1cccc(CCCCCCCCCC(=O)*)c1; X59 = O=C1C=CC(=O)N1c1cccc(CCCCCCCCC(=O)*)c1; X72 = O=C1C=CC(=O)N1c1ccccc1CCCCCCCCCCC(=O)*; X54 = O=C1C=CC(=O)N1c1cccc(CCCCCCC(=O)*)c1; X52 = O=C1C=CC(=O)N1c1ccccc1CCCCCCCC(=O)*; X63 = O=C1C=CC(=O)N1c1ccccc1CCCCCCC(=O)*; X49 = O=C1C=CC(=O)N1c1ccccc1CCCCCC(=O)*; X61 = O=C1C=CC(=O)N1c1cccc(CCCC(=O)*)c1; X79 = O=C1C=CC(=O)N1c1cccc(CCC(=O)*)c1
Assignment: determine reported IL-1β for the given compounds.
Output should be the measured figure followed by the unit it is expressed in.

Hello, I am looking for reported IL-1β with IL-1β production by mouse peritoneal macrophages for C[C@H](NC(=O)CNC(=O)[C@H](CCCNC(=N)N)NC(=O)CCCCCc1ccccc1N1C(=O)C=CC1=O)C(=O)N[C@@H](CC(=O)O)C(=O)N[C@@H](CCCNC(=N)N)C(=O)N[C@@H](C)C(=O)NCC(=O)NCC(=O)NCC(=O)NCC(=O)N[C@@H](CCCNC(=N)N)C(=O)NCC(=O)N[C@@H](CC(=O)O)C(=O)O [X17] (X49-RGADRAGGGGRGD-OH) . Could you help?
528.00 ± 10.53 pg/mL

Hello, I am looking for reported IL-1β with IL-1β production by mouse peritoneal macrophages for C[C@H](NC(=O)CNC(=O)[C@H](CCCNC(=N)N)NC(=O)CCCCCCCc1ccccc1N1C(=O)C=CC1=O)C(=O)N[C@@H](CC(=O)O)C(=O)N[C@@H](CCCNC(=N)N)C(=O)N[C@@H](C)C(=O)NCC(=O)NCC(=O)NCC(=O)NCC(=O)N[C@@H](CCCNC(=N)N)C(=O)NCC(=O)N[C@@H](CC(=O)O)C(=O)O [X19] (X52-RGADRAGGGGRGD-OH) . Could you help?
589.21 ± 12.08 pg/mL

Hello, I am looking for reported IL-1β with IL-1β production by mouse peritoneal macrophages for C[C@H](NC(=O)CNC(=O)[C@H](CCCNC(=N)N)NC(=O)CCc1cccc(N2C(=O)C=CC2=O)c1)C(=O)N[C@@H](CC(=O)O)C(=O)N[C@@H](CCCNC(=N)N)C(=O)N[C@@H](C)C(=O)NCC(=O)NCC(=O)NCC(=O)NCC(=O)N[C@@H](CCCNC(=N)N)C(=O)NCC(=O)N[C@@H](CC(=O)O)C(=O)O [X26] (X79-RGADRAGGGGRGD-OH) . Could you help?
663.38 ± 11.96 pg/mL

Hello, I am looking for reported IL-1β with IL-1β production by mouse peritoneal macrophages for C[C@H](NC(=O)CNC(=O)[C@H](CCCNC(=N)N)NC(=O)CCCCCCc1ccccc1N1C(=O)C=CC1=O)C(=O)N[C@@H](CC(=O)O)C(=O)N[C@@H](CCCNC(=N)N)C(=O)N[C@@H](C)C(=O)NCC(=O)NCC(=O)NCC(=O)NCC(=O)N[C@@H](CCCNC(=N)N)C(=O)NCC(=O)N[C@@H](CC(=O)O)C(=O)O [X18] (X63-RGADRAGGGGRGD-OH) . Could you help?
683.26 ± 19.63 pg/mL

Hello, I am looking for reported IL-1β with IL-1β production by mouse peritoneal macrophages for C[C@H](NC(=O)CNC(=O)[C@H](CCCNC(=N)N)NC(=O)CCCCCCCCCCc1ccccc1N1C(=O)C=CC1=O)C(=O)N[C@@H](CC(=O)O)C(=O)N[C@@H](CCCNC(=N)N)C(=O)N[C@@H](C)C(=O)NCC(=O)NCC(=O)NCC(=O)NCC(=O)N[C@@H](CCCNC(=N)N)C(=O)NCC(=O)N[C@@H](CC(=O)O)C(=O)O [X22] (X72-RGADRAGGGGRGD-OH) . Could you help?
578.51 ± 14.03 pg/mL

Hello, I am looking for reported IL-1β with IL-1β production by mouse peritoneal macrophages for C[C@H](NC(=O)CNC(=O)[C@H](CCCNC(=N)N)NC(=O)CCCCCCCCCCCc1cccc(N2C(=O)C=CC2=O)c1)C(=O)N[C@@H](CC(=O)O)C(=O)N[C@@H](CCCNC(=N)N)C(=O)N[C@@H](C)C(=O)NCC(=O)NCC(=O)NCC(=O)NCC(=O)N[C@@H](CCCNC(=N)N)C(=O)NCC(=O)N[C@@H](CC(=O)O)C(=O)O [X35] (X58-RGADRAGGGGRGD-OH) . Could you help?
615.43 ± 17.18 pg/mL

Hello, I am looking for reported IL-1β with IL-1β production by mouse peritoneal macrophages for C[C@H](NC(=O)CNC(=O)[C@H](CCCNC(=N)N)NC(=O)CCCCCCCCCCCCc1ccccc1N1C(=O)C=CC1=O)C(=O)N[C@@H](CC(=O)O)C(=O)N[C@@H](CCCNC(=N)N)C(=O)N[C@@H](C)C(=O)NCC(=O)NCC(=O)NCC(=O)NCC(=O)N[C@@H](CCCNC(=N)N)C(=O)NCC(=O)N[C@@H](CC(=O)O)C(=O)O [X24] (X84-RGADRAGGGGRGD-OH) . Could you help?
548.82 ± 19.58 pg/mL

Hello, I am looking for reported IL-1β with IL-1β production by mouse peritoneal macrophages for C[C@H](NC(=O)CNC(=O)[C@H](CCCNC(=N)N)NC(=O)CCCCCCc1cccc(N2C(=O)C=CC2=O)c1)C(=O)N[C@@H](CC(=O)O)C(=O)N[C@@H](CCCNC(=N)N)C(=O)N[C@@H](C)C(=O)NCC(=O)NCC(=O)NCC(=O)NCC(=O)N[C@@H](CCCNC(=N)N)C(=O)NCC(=O)N[C@@H](CC(=O)O)C(=O)O [X30] (X54-RGADRAGGGGRGD-OH) . Could you help?
589.79 ± 19.66 pg/mL

Hello, I am looking for reported IL-1β with IL-1β production by mouse peritoneal macrophages for C[C@H](NC(=O)CNC(=O)[C@H](CCCNC(=N)N)NC(=O)CCCCCCCCCCc1cccc(N2C(=O)C=CC2=O)c1)C(=O)N[C@@H](CC(=O)O)C(=O)N[C@@H](CCCNC(=N)N)C(=O)N[C@@H](C)C(=O)NCC(=O)NCC(=O)NCC(=O)NCC(=O)N[C@@H](CCCNC(=N)N)C(=O)NCC(=O)N[C@@H](CC(=O)O)C(=O)O [X34] (X74-RGADRAGGGGRGD-OH) . Could you help?
676.31 ± 16.02 pg/mL

Hello, I am looking for reported IL-1β with IL-1β production by mouse peritoneal macrophages for C[C@H](NC(=O)CNC(=O)[C@H](CCCNC(=N)N)NC(=O)CCCCCCCCc1cccc(N2C(=O)C=CC2=O)c1)C(=O)N[C@@H](CC(=O)O)C(=O)N[C@@H](CCCNC(=N)N)C(=O)N[C@@H](C)C(=O)NCC(=O)NCC(=O)NCC(=O)NCC(=O)N[C@@H](CCCNC(=N)N)C(=O)NCC(=O)N[C@@H](CC(=O)O)C(=O)O [X32] (X59-RGADRAGGGGRGD-OH) . Could you help?
533.56 ± 18.54 pg/mL

Hello, I am looking for reported IL-1β with IL-1β production by mouse peritoneal macrophages for C[C@H](NC(=O)CNC(=O)[C@H](CCCNC(=N)N)NC(=O)CCCCCCCCCc1cccc(N2C(=O)C=CC2=O)c1)C(=O)N[C@@H](CC(=O)O)C(=O)N[C@@H](CCCNC(=N)N)C(=O)N[C@@H](C)C(=O)NCC(=O)NCC(=O)NCC(=O)NCC(=O)N[C@@H](CCCNC(=N)N)C(=O)NCC(=O)N[C@@H](CC(=O)O)C(=O)O [X33] (X64-RGADRAGGGGRGD-OH) . Could you help?
593.32 ± 11.64 pg/mL

Hello, I am looking for reported IL-1β with IL-1β production by mouse peritoneal macrophages for C[C@H](NC(=O)CNC(=O)[C@H](CCCNC(=N)N)NC(=O)CCCc1cccc(N2C(=O)C=CC2=O)c1)C(=O)N[C@@H](CC(=O)O)C(=O)N[C@@H](CCCNC(=N)N)C(=O)N[C@@H](C)C(=O)NCC(=O)NCC(=O)NCC(=O)NCC(=O)N[C@@H](CCCNC(=N)N)C(=O)NCC(=O)N[C@@H](CC(=O)O)C(=O)O [X27] (X61-RGADRAGGGGRGD-OH) . Could you help?
624.72 ± 14.38 pg/mL
